experiment: in vitro; conditions: PAMPA, PAMPA-BBB Pe(10^-6 cm/sec), Table S3: compounds exhibiting low PAMPA-BBB permeability
Readout name: Papp

Worked cases, answers included:
Substance smiles	Measured result
C[C@@]12C=Cc3occc3[C@H]1CC[C@@]13C[C@@H](CC[C@H]12)[C@@](O)(CO)C3	< 1 ×10⁻⁶ cm/s
Cc1cc(OC(=O)c2c(C)cc(O)cc2O)cc(O)c1C(=O)O	< 1 ×10⁻⁶ cm/s

--- query ---
Quick note, Papp for O=c1cc(-c2ccc(O)cc2)oc2c([C@@H]3O[C@H](CO)[C@@H](O)[C@H](O)[C@H]3O)c(O)cc(O)c12 landed at < 1 ×10⁻⁶ cm/s

---

conditions: Table S2: compounds exhibiting moderate to high PAMPA-BBB permeability
Readout name: PAMPA-BBB Pe

Molecule	Readout name	Measured result
NC(=O)Nc1ccc(Cl)c(Cl)c1 [NCGC00255466-01]	PAMPA-BBB Pe	148 10^-6 cm/sec

For reference, reported PAMPA-BBB Pe for O=c1cc(-c2ccc(O)cc2)oc2cc(O)cc(O)c12 [Apigenin] stands at 36 10^-6 cm/sec

Note to self: PAMPA-BBB Pe recorded for COc1ccc2c(c1)O[C@@H]1COc3cc(OC)c(OC)cc3[C@@H]1C2=O [NCGC00178970-02] was 355 10^-6 cm/sec

Recorded result, CC(=O)Oc1ccc(/C=C/c2cc(OC(C)=O)cc(OC(C)=O)c2)cc1 [NCGC00095675-03] , PAMPA-BBB Pe: 200 10^-6 cm/sec

According to the records, this molecule COc1cc(=O)n(C)c2c(OCC3OC(C)(C)OC3(C)C)cccc12 (stereo not shown) [NCGC00160200-01] displays PAMPA-BBB Pe of 106 10^-6 cm/sec

---

Each entry below lists one item and its recorded Papp value.
assay: in vitro; conditions: PAMPA, PAMPA-BBB Pe(10^-6 cm/sec), Table S3: compounds exhibiting low PAMPA-BBB permeability

Molecule	Papp
COC1=C2C[C@@H](C)C[C@H](OC)[C@H](O)[C@@H](C)/C=C(\C)[C@H](OC(N)=O)[C@@H](OC)/C=C\C=C(/C)C(=O)NC(=CC1=O)C2=O	< 10 nm/s
C[C@H]1O[C@@H](Oc2c(-c3ccc(O)c(O)c3)oc3cc(O)cc(O)c3c2=O)[C@H](O)[C@H](O)[C@H]1O [QUERCITROSIDE]	< 10 nm/s

--- query ---
Sure, the documented Papp for COc1cc(OC)c(C(C)=O)c(O)c1C is < 10 nm/s

---

assay: in vitro; conditions: PAMPA, PAMPA-BBB Pe, Table S2: compounds exhibiting moderate to high PAMPA-BBB permeability
Readout name: Papp

Examples from the recorded data:
Compound	Papp
O=C1NC(=O)C(c2c[nH]c3ccccc23)=C1c1c[nH]c2ccccc12 [BISINDOLYLMALEIMIDE]	> 654 ×10⁻⁶ cm/s
CC(=O)c1c(O)cccc1O	45 ×10⁻⁶ cm/s
COC(=O)/C=C\C(=O)O [[…]]	48 ×10⁻⁶ cm/s
CC1(C)C2=CCCC(C)(C)[C@]23CC[C@H]1C3	87 ×10⁻⁶ cm/s

Data point: S=c1ccss1 ; Papp = 98 ×10⁻⁶ cm/s

Reported Papp ( O=c1c2ccccc2oc2ccccc12 ) = 173 ×10⁻⁶ cm/s

Form: compound = CC[C@@]1(O)C[C@H](O[C@H]2C[C@H](N(C)C)[C@H](O)[C@H](C)O2)c2c(cc3c(c2O)C(=O)c2c(O)ccc(O)c2C3=O)[C@H]1C(=O)OC ; Papp = 32 ×10⁻⁶ cm/s

The recorded Papp for COc1cc(C)cc(O)c1 [3-HYDROXY-5-METHOXYTOLUENE] is 50 ×10⁻⁶ cm/s

Reported Papp of Cc1ccc(C(C)C)cc1O : 111 ×10⁻⁶ cm/s

---

Property: Papp; scope: individual compounds
experiment: in vitro; details: PAMPA, PAMPA-BBB Pe(10^-6 cm/sec), Table S3: compounds exhibiting low PAMPA-BBB permeability

Examples from the recorded data:
Compound	Papp
CNCC/C=C/c1cccnc1 [RIVANICLINE]	7.1 ×10⁻⁶ cm/s
CSCCCN=C=S [IBERVERIN]	9.7 ×10⁻⁶ cm/s
O=C(O)/C=C/c1ccc(O)c(O)c1 [CAFFEIC ACID]	< 1 ×10⁻⁶ cm/s
CC1(C)CCC2=C(O1)c1ccccc1C(=O)C2=O [.BETA.-LAPACHONE]	< 1 ×10⁻⁶ cm/s
CC(=O)O[C@H]1C(=O)[C@@]2(C)[C@H]([C@H](OC(=O)c3ccccc3)[C@]3(O)C[C@H](O)C(C)=C1C3(C)C)[C@]1(OC(C)=O)CO[C@@H]1C[C@@H]2O [BACCATIN III]	< 1 ×10⁻⁶ cm/s

Lab note: measured Papp of COc1ccc(C(=O)O)cc1OC [3,4-DIMETHOXYBENZOIC ACID] was < 1 ×10⁻⁶ cm/s

compound O=C(O[C@@H]1Cc2c(O)cc(O)cc2O[C@H]1c1cc(O)c(O)c(O)c1)c1cc(O)c(O)c(O)c1 [GALLOCATECHIN GALLATE, (-)-] , Papp observed: < 1 ×10⁻⁶ cm/s

Summary for this compound, COc1ccc2cc1Oc1ccc(cc1)C[C@H]1c3cc(c(OC)cc3CCN1C)Oc1c(OC)c(OC)c(OC)c3c1[C@H](C2)N(C)CC3 [HERNANDEZINE] : Papp is 9.7 ×10⁻⁶ cm/s

---

A collection of compounds and their measured Papp
assay: in vitro; settings: PAMPA, PAMPA-BBB Pe(10^-6 cm/sec), Table S3: compounds exhibiting low PAMPA-BBB permeability

Worked examples follow.
Substance smiles	Papp
OC[C@H]1O[C@@H](Oc2ccc(O)cc2)[C@H](O)[C@@H](O)[C@@H]1O	< 1 ×10⁻⁶ cm/s
Cn1c(=O)[nH]c2ncn(C)c2c1=O	< 1 ×10⁻⁶ cm/s

With those in mind, consider the next compound.
Record COC(=O)C1=CO[C@@H](O)[C@@H]2C(CO)=CC[C@H]12 , field Papp: < 1 ×10⁻⁶ cm/s

---

test: in vitro; details: PAMPA, PAMPA-BBB Pe(10^-6 cm/sec), Table S3: compounds exhibiting low PAMPA-BBB permeability
Readout name: Papp (×10⁻⁶ cm/s)
API: value field is a number in ×10⁻⁶ cm/s; no unit string.

Worked examples, 4 compounds total:
Compound	Unit	Papp
O=C1/C(=C\c2ccc(O)c(O)c2)Oc2c1ccc(O[C@@H]1O[C@H](CO)[C@@H](O)[C@H](O)[C@H]1O)c2O [[…]]	×10⁻⁶ cm/s	1
C[C@@H]1C/C=C/C=C/C=C/C=C/[C@H](O[C@@H]2O[C@H](C)[C@@H](O)[C@H](N)[C@@H]2O)C[C@@H]2O[C@](O)(C[C@@H](O)C[C@H]3O[C@@H]3/C=C/C(=O)O1)C[C@H](O)[C@H]2C(=O)O [NATAMYCIN]	×10⁻⁶ cm/s	5.7
CCC/C=C/C/C=C/C=C/C=N/NN=O [TRIACSIN C]	×10⁻⁶ cm/s	8.1
c1cncc([C@@H]2CCCN2)c1 [NORNICOTINE]	×10⁻⁶ cm/s	8.4

Below: the item to evaluate.
compound CCC(=O)c1c(O)cc(O)cc1O [FLOPROPIONE] , Papp observed: 2.8

---

Each entry below carries its reported Papp.
assay: in vitro; conditions: PAMPA, PAMPA-BBB Pe(10^-6 cm/sec), Table S3: compounds exhibiting low PAMPA-BBB permeability
Structures can show the parent of a compound that is named as a salt.

Compound	Papp
O=C1C[C@@H](c2ccc(O[C@@H]3O[C@H](CO)[C@@H](O)[C@H](O)[C@H]3O)cc2)Oc2cc(O)ccc21 [LIQUIRITIN]	< 10 nm/s

Reported Papp of C[S+](CC[C@H](N)C(=O)[O-])C[C@H]1O[C@@H](n2cnc3c(N)ncnc32)[C@H](O)[C@@H]1O (stereo partly shown) [S-ADENOSYLMETHIONINE] : < 10 nm/s

For O=C(OCC1=C[C@@H](O)[C@@H]2C=CO[C@@H](O[C@@H]3O[C@H](CO)[C@@H](O)[C@H](O)[C@H]3O)[C@H]12)c1ccc(O)cc1 [AGNUSIDE] the compound record lists Papp as < 10 nm/s

Entry COc1ccc(-c2coc3cc(O[C@@H]4O[C@H](CO)[C@@H](O)[C@H](O)[C@H]4O)ccc3c2=O)cc1 [ONONOSIDE] ; Papp = < 10 nm/s

Reported Papp of CC(=O)Nc1c2sscc-2n(C)c1=O [THIOLUTIN] : < 10 nm/s

Entry Cc1cccc(C(=O)O)c1O [HYDROXYTOLUIC ACID] — recorded Papp = < 10 nm/s

The compound identified as C[n+]1cc2c3c(ccc2c2ccc4cc5c(cc4c21)OCO5)OCO3 [SANGUINARIUM CHLORIDE] registered its Papp at < 10 nm/s

Query Cc1ncsc1CCO [HEMINEURINE] yields Papp of < 10 nm/s

Short answer for [O-][n+]1ccccc1SSc1cccc[n+]1[O-] [[…]] : Papp was < 10 nm/s

For reference, reported Papp for O=C(C[C@H]1NCCC[C@@H]1O)Cn1cnc2ccccc2c1=O [FEBRIFUGINE] stands at < 10 nm/s

The reported Papp of the compound C=C1CC[C@H](O)C/C1=C/C=C1\CCC[C@]2(C)[C@@H]([C@H](C)CCCC(C)C)CC[C@@H]12 [CHOLECALCIFEROL] was < 10 nm/s

Please fill in: Papp reported for CC(=O)NCCc1c[nH]c2ccc(O)cc12 [NORMELATONIN] = < 10 nm/s

Papp for CO[C@H]1[C@@H](O)[C@@H](C)O[C@H](O[C@H]2[C@H](Oc3cccc4c(O)c5c(=O)oc6ccc(C)c7c(=O)oc(c34)c5c67)O[C@H](C)[C@H](O)[C@@H]2O)[C@@H]1O [CHARTREUSIN] is 40 nm/s

Quick note, Papp for O=c1c(O)c(-c2cc(O)c(O)c(O)c2)oc2cc(O)ccc12 [ROBINETIN] landed at 10 nm/s

Noted for COC1=C[C@@H]2C3=C([C@@H]2C1=O)[C@@H](NC(C)=O)CCc1cc(OC)c(OC)c(OC)c13 [β-Lumicolchicine] : its Papp reads 36 nm/s

GET /value?item= C[C@H]1O[C@H](O[C@H]2[C@H](O)[C@@H](O)[C@@H](O)[C@H](O)[C@@H]2O)[C@@H](N)C[C@@H]1NC(=N)C(=O)O [KASUGAMYCIN HYDROCHLORIDE] &field=Papp returns < 10 nm/s

Entry COc1cc2c(cc1O)C[C@@H]1NCCc3cc(OC)c(OC)c-2c31 [LAUROTETANINE] ; Papp = < 10 nm/s

Briefly, Papp measured for COc1ccc([C@@H]2CC(=O)c3c(O)cc(O[C@@H]4O[C@H](CO)[C@@H](O)[C@H](O)[C@H]4O[C@@H]4O[C@@H](C)[C@H](O)[C@@H](O)[C@H]4O)cc3O2)cc1 [PONCIRIN] : < 10 nm/s

The compound identified as O=c1c(O[C@@H]2O[C@H](CO)[C@H](O)[C@H](O)[C@H]2O)c(-c2ccc(O)c(O)c2)oc2cc(O)cc(O)c12 [HYPEROSIDE] registered its Papp at 16 nm/s

Record O=c1ccc2ccc(O[C@@H]3O[C@H](CO)[C@@H](O)[C@H](O)[C@H]3O)c(O)c2o1 [DAPHNIN] , field Papp: < 10 nm/s

Lab note: CC1=C[C@H]2[C@@]3(O)[C@H](C)[C@@H](O)[C@]4(O)[C@H]([C@@H]3C=C(CO)C[C@]2(O)C1=O)C4(C)C [PHORBOL] gave Papp of < 10 nm/s

Papp for COc1ccc([C@@H]2CC(=O)c3c(O)cc(O[C@@H]4O[C@H](CO)[C@@H](O)[C@H](O)[C@H]4O[C@@H]4O[C@@H](C)[C@H](O)[C@@H](O)[C@H]4O)cc3O2)cc1O [NEOHESPERIDIN] is < 10 nm/s

Values compiled from paper PMC11876671.
